Source of measurements: paper PMC7211327

System: Pseudomonas aeruginosa (ATCC 27853)
Test: Paper disk diffusion MIC
Assay type: cell-based
Conditions: ATCC27853, 24 h, read-out: Minimal Inhibitory Concentration (MIC)
propertyMeasured: MIC (µg/mL)

Below, 2 molecules whose answers are already recorded.
>>> val("Cc1cccc(NC(=O)CSc2nc3ccccc3c(=O)n2-c2ccc(S(N)(=O)=O)cc2)c1")
15.6
>>> val("CN[C@H](CC(C)C)C(=O)N[C@H]1C(=O)N[C@@H](CC(N)=O)C(=O)N[C@H]2C(=O)N[C@H]3C(=O)N[C@H](C(=O)N[C@H](C(=O)O)c4cc(O)cc(O)c4-c4cc3ccc4O)[C@H](O)c3ccc(c(Cl)c3)Oc3cc2cc(c3O[C@@H]2O[C@H](CO)[C@@H](O)[C@H](O)[C@H]2O[C@H]2C[C@](C)(N)[C@H](O)[C@H](C)O2)Oc2ccc(cc2Cl)[C@H]1O [Vancomycin, reference compound]")
2.5

P = CN(C)[C@@H]1C(O)=C(C(N)=O)C(=O)[C@@]2(O)C(O)=C3C(=O)c4c(O)cccc4[C@@](C)(O)[C@H]3C[C@@H]12 [Tetracycline, reference compound]
Q = Cc1ccccc1NC(=O)CSc1nc2ccccc2c(=O)n1-c1ccc(S(N)(=O)=O)cc1
R = NS(=O)(=O)c1ccc(-n2c(SCC(=O)Nc3ccccc3)nc3ccccc3c2=O)cc1
S = O=C(O)c1cn(C2CC2)c2cc(N3CCNCC3)c(F)cc2c1=O [Ciprofloxacin, reference compound]
Request: rank_up(items): orders items by reported MIC in ascending numerical order. I would appreciate it if you listed the labels in the requested order.
Result: S, Q, R, P
(S: 3.13 µg/mL, Q: 7.5 µg/mL, R: 20 µg/mL, P: 62.5 µg/mL)
